Data origin, for the record: the supplement of paper PMC10307832

Test system: NCI-H647
PROTOCOL DESCRIPTION: relative viability (nuclei count vs DMSO), 5 days (fraction); higher = more cells survive
CONDITION PARAMETERS: first compound 0.6325 µM
Provide the recorded relative viability for the entries that follow.
Please reply with the number alone, leaving off any unit.

// molecule COCC1(CO)C(=O)C2CCN1CC2 (centres undefined) [PRIMA-1MET] + O=C(CCCCCCC(=O)Nc1ccccc1)NO [Vorinostat] (partner 1 µM) , assay NCI-H647, relative viability value: 0.444

// molecule COCC1(CO)C(=O)C2CCN1CC2 (centres undefined) [PRIMA-1MET] + Cc1nc(NC(=O)N2CCC[C@H]2C(N)=O)sc1-c1ccnc(C(C)(C)C(F)(F)F)c1 [Alpelisib] (partner 2 µM) , assay NCI-H647, relative viability value: 1.04

// molecule COCC1(CO)C(=O)C2CCN1CC2 (centres undefined) [PRIMA-1MET] + CC(C)C[C@H](NC(=O)[C@H](Cc1ccccc1)NC(=O)c1cnccn1)B(O)O [Bortezomib] (partner 0.002 µM) , assay NCI-H647, relative viability value: 1.06

// molecule COCC1(CO)C(=O)C2CCN1CC2 (centres undefined) [PRIMA-1MET] + Nc1nc2[nH]cc(CCc3ccc(C(=O)N[C@@H](CCC(=O)O)C(=O)O)cc3)c2c(=O)[nH]1 [Pemetrexed] (partner 0.2 µM) , assay NCI-H647, relative viability value: 0.152
